Biological target: Chemerin-like receptor 1 (Homo sapiens, UniProt Q99788)
Test: Displacement of [125I]-chemerin from ChemR23 (unknown origin) transfected in mouse BaF3 cells after 3 hrs by scintillation counting method
Reported IC50 is given for each of the following compounds.

The following compounds have reported results that may help.
{"COMPOUND": "CCN(C)C[C@@]1(C(=O)Nc2cc(C3CC3)cc(C(F)(F)F)c2)CN(c2c(C)cccc2C)C(=O)[C@H]1C", "IC50": "30 to 300 nM"}
{"COMPOUND": "Cc1cccc(C)c1N1CC(C(=O)Nc2cc(N3CCCCC3)cc(C(F)(F)F)c2)CC1=O (stereo not drawn)", "IC50": "30 to 300 nM"}

// IC50 value for Cc1cccc(F)c1N1CC(C(=O)Nc2cc(C(F)(F)F)cc(C(F)(F)F)c2)(C(C)C)CC1=O (stereo not drawn) : 30 to 300 nM

---

Target: Chemerin-like receptor 1 (Homo sapiens, UniProt Q99788)
Experiment: Displacement of [125I]-chemerin from ChemR23 (unknown origin) transfected in mouse BaF3 cells after 3 hrs by scintillation counting method
Reported IC50 is given for each of the following compounds.

The following compounds have reported results that may help.
{"COMPOUND": "Cc1cccc(Cl)c1N1CC(C(=O)Nc2cc(C(F)(F)F)cc(C(F)(F)F)c2)CC1=O (stereo unspecified)", "TEST_SYSTEM": "Chemerin-like receptor 1 (Homo sapiens, UniProt Q99788)", "IC50": "30 to 300 nM"}
{"COMPOUND": "CC[C@@]1(C(=O)Nc2cc(Cl)cc(C(F)(F)F)c2)CN(c2c(C)cccc2C)C(=O)[C@H]1C", "TEST_SYSTEM": "Chemerin-like receptor 1 (Homo sapiens, UniProt Q99788)", "IC50": "≤ 30 nM"}
{"COMPOUND": "Cc1cccc(C)c1N1CC(CO)(C(=O)Nc2cc(C(F)(F)F)cc(C(F)(F)F)c2)CC1=O (stereo unspecified)", "TEST_SYSTEM": "Chemerin-like receptor 1 (Homo sapiens, UniProt Q99788)", "IC50": "30 to 300 nM"}
{"COMPOUND": "Cc1cccc(C)c1N1C[C@@](CN2CCOCC2)(C(=O)Nc2cc(C#N)cc(C(F)(F)F)c2)[C@H](C)C1=O", "TEST_SYSTEM": "Chemerin-like receptor 1 (Homo sapiens, UniProt Q99788)", "IC50": "30 to 300 nM"}

// IC50 value for Cc1cccc(C)c1N1CC(C(=O)Nc2cc(C3CC3)cc(C(F)(F)F)c2)CC1=O (stereo unspecified) : 300 to 6000 nM

// IC50 value for C=CCc1cccc(C)c1N1CC(C(=O)Nc2cc(C(F)(F)F)cc(C(F)(F)F)c2)(C(C)C)CC1=O (stereo unspecified) : ≤ 30 nM

// IC50 value for CCC(C)(C)C1(C(=O)Nc2cc(C(F)(F)F)cc(C(F)(F)F)c2)CC(=O)N(c2c(C)cccc2C)C1 (stereo unspecified) : 30 to 300 nM

// IC50 value for Cc1ccccc1N1CC(C(=O)Nc2cc(C3CC3)cc(C(F)(F)F)c2)(C(C)C)CC1=O (stereo unspecified) : 30 to 300 nM

// IC50 value for CC(C)C1(C(=O)Nc2cc(C(F)(F)F)cc(C(F)(F)F)c2)CC(=O)N(c2ccccc2Cl)C1 (stereo unspecified) : 30 to 300 nM

// IC50 value for Cc1cccc(C)c1N1CC2(C(=O)Nc3cc(C(F)(F)F)cc(C(F)(F)F)c3)C[C@@H](F)CC2C1=O (stereo partly specified) : 30 to 300 nM

// IC50 value for Cc1cccc(C)c1N1CC(C(=O)Nc2cc(C#N)cc(C(F)(F)F)c2)CC1=O (stereo unspecified) : 30 to 300 nM

---

Reported pIC50 is given for each of the following compounds.
Target: Chemerin-like receptor 1 (Homo sapiens)
Experiment: Displacement of [125I]-chemerin from ChemR23 (unknown origin) transfected in mouse BaF3 cells after 3 hrs by scintillation counting method
pIC50: −log10 of the molar value.

// pIC50 value for C=CCC1C(=O)N(c2c(C)cccc2C)CC1(CC=C)C(=O)Nc1cc(C(F)(F)F)cc(C(F)(F)F)c1 (stereo not given) : ≥ 7.52

// pIC50 value for COCCOc1cc(NC(=O)C2(C(C)C)CC(=O)N(c3c(C)cccc3Br)C2)cc(C(F)(F)F)c1 (stereo not given) : 5.22 to 6.52

// pIC50 value for `Cc1cccc(C)c1N1C[C@@](CN2CCC(F)(F)CC2)(C(=O)Nc2cc(Cl)cc(C(F)(F)F)c2)[C@H](C)C1=O` : 6.52 to 7.52

---

Reported pIC50 is given for each of the following compounds.
Target: UniProt Q99788
Sequence (Q99788 whole entry): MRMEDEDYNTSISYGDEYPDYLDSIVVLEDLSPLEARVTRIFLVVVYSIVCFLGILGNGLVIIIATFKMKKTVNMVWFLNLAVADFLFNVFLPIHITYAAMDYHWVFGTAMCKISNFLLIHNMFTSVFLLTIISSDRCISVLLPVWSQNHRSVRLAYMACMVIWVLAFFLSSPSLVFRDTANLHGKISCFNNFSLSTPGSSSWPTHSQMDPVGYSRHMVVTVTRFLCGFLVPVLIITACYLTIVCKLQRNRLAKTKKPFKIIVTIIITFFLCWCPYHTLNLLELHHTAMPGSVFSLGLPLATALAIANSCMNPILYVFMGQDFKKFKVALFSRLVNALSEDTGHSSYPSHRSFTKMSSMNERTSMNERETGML
Assay: Displacement of [125I]-chemerin from ChemR23 (unknown origin) transfected in mouse BaF3 cells after 3 hrs by scintillation counting method
pIC50: −log10 of the molar value.

The following compounds have reported results that may help.
{"COMPOUND": "CCN(CC)C[C@@]1(C(=O)Nc2cc(C3CC3)cc(C(F)(F)F)c2)CN(c2c(C)cccc2C)C(=O)[C@H]1C", "pIC50": "≥ 7.52"}
{"COMPOUND": "Cc1cccc(C)c1N1C[C@@](CN2CCC(F)CC2)(C(=O)Nc2cc(C(F)(F)F)cc(C(F)(F)F)c2)[C@H](C)C1=O", "pIC50": "6.52 to 7.52"}
{"COMPOUND": "CC[C@@H]1C(=O)N(c2c(C)cccc2C)C[C@@]1(CC)C(=O)Nc1cc(C(F)(F)F)cc(C(F)(F)F)c1", "pIC50": "≥ 7.52"}
{"COMPOUND": "Cc1cccc(C)c1N1C[C@@](CN(C)C(C)(C)CO)(C(=O)Nc2cc(C(F)(F)F)cc(C(F)(F)F)c2)[C@H](C)C1=O", "pIC50": "6.52 to 7.52"}
{"COMPOUND": "Cc1cccc(C)c1N1CC(C(=O)Nc2cccc(Cl)c2)CC1=O (centres undefined)", "pIC50": "5.22 to 6.52"}
{"COMPOUND": "CCc1cccc(C)c1N1CC(C(=O)Nc2ccc(OC)c(C(F)(F)F)c2)CC1=O (centres undefined)", "pIC50": "5.22 to 6.52"}

// pIC50 value for `CC[C@@]1(C(=O)Nc2cc(CN3CCCC3)cc(C(F)(F)F)c2)CN(c2c(C)cccc2C)C(=O)[C@H]1C` : 5.22 to 6.52

// pIC50 value for CCc1cccc(C)c1N1CC(C(=O)Nc2ccc(F)c(C(F)(F)F)c2)CC1=O (centres undefined) : 5.22 to 6.52

// pIC50 value for Cc1cccc(C)c1N1CC(CC(C)C)(C(=O)Nc2cc(C(F)(F)F)cc(C(F)(F)F)c2)CC1=O (centres undefined) : ≥ 7.52

// pIC50 value for `CCN(CC)C[C@@]1(C(=O)Nc2cc(C(F)(F)F)cc(C(F)(F)F)c2)CN(c2c(C)cccc2C)C(=O)[C@H]1C` : 5.22 to 6.52

// pIC50 value for `Cc1cccc(C)c1N1C[C@](C(=O)Nc2cc(NC(C)C)cc(C(F)(F)F)c2)(C(C)C)[C@H](C)C1=O` : 6.52 to 7.52

// pIC50 value for `Cc1cccc(C)c1N1C[C@@](CN(C)CC2CC2)(C(=O)Nc2cc(C#N)cc(C(F)(F)F)c2)[C@H](C)C1=O` : 6.52 to 7.52

// pIC50 value for Cc1cccc(Br)c1N1CC(C(=O)Nc2cccc(C(F)(F)F)c2)CC1=O (centres undefined) : 5.22 to 6.52

---

Reported IC50 is given for each of the following compounds.
Target: UniProt:Q99788
Sequence (Q99788 whole entry): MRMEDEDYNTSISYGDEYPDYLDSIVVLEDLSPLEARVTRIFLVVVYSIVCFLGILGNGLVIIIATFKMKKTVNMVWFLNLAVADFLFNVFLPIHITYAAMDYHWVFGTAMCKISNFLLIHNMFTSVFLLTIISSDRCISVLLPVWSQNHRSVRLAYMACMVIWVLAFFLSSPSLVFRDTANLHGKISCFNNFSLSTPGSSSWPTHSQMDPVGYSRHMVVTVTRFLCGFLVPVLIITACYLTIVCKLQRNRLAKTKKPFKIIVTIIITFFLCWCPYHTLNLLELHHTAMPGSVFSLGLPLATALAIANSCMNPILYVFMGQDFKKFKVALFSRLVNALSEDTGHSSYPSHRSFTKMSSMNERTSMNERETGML
Assay: Displacement of [125I]-chemerin from ChemR23 (unknown origin) transfected in mouse BaF3 cells after 3 hrs by scintillation counting method

The following compounds have reported results that may help.
{"COMPOUND": "CCCN(CC)C[C@@]1(C(=O)Nc2cc(C(F)(F)F)cc(C(F)(F)F)c2)CN(c2c(C)cccc2C)C(=O)[C@H]1C", "IC50": "≤ 30 nM"}
{"COMPOUND": "CCN(CC(F)(F)F)C[C@@]1(C(=O)Nc2cc(C#N)cc(C(F)(F)F)c2)CN(c2c(C)cccc2C)C(=O)[C@H]1C", "IC50": "≤ 30 nM"}
{"COMPOUND": "Cc1cccc(C)c1N1CC(CCCO)(C(=O)Nc2cc(C(F)(F)F)cc(C(F)(F)F)c2)CC1=O (stereo not given)", "IC50": "30 to 300 nM"}
{"COMPOUND": "Cc1cccc(C2CC2)c1N1CC(C(=O)Nc2cc(C(F)(F)F)cc(C(F)(F)F)c2)CC1=O (stereo not given)", "IC50": "≤ 30 nM"}
{"COMPOUND": "Cc1cccc(C)c1N1C[C@@](CN2CCOC[C@H]2C)(C(=O)Nc2cc(C(F)(F)F)cc(C(F)(F)F)c2)[C@H](C)C1=O", "IC50": "30 to 300 nM"}
{"COMPOUND": "Cc1cccc(C)c1N1CC(C(=O)Nc2cc(C(F)(F)F)cc(C(F)(F)F)c2)(C2CCNC2)CC1=O (stereo not given)", "IC50": "300 to 6000 nM"}
{"COMPOUND": "Cc1cccc(C)c1N1CC(CC2CCN(Cc3ccccc3)C2)(C(=O)Nc2cc(C(F)(F)F)cc(C(F)(F)F)c2)CC1=O (stereo not given)", "IC50": "≤ 30 nM"}
{"COMPOUND": "Cc1cccc(C)c1N1CC(CCC(C)C)(C(=O)Nc2cc(C(F)(F)F)cc(C(F)(F)F)c2)CC1=O (stereo not given)", "IC50": "≤ 30 nM"}
{"COMPOUND": "Cc1ccccc1N1CC(C(=O)Nc2cccc(C(F)(F)F)c2)CC1=O (stereo not given)", "IC50": "300 to 6000 nM"}

Next up:
// IC50 value for `Cc1cccc(C)c1N1C[C@@](CN(CCF)CCF)(C(=O)Nc2cc(C(F)(F)F)cc(C(F)(F)F)c2)[C@H](C)C1=O` : ≤ 30 nM
